System: Ustilago segetum var. avenae
test_method_notes: in vitro-Test with fungal microorganisms, Method A (tables I1-I5)
Assay type: cell-based
study_conditions: alone, 1.0 ppm
Some molecules, each annotated with its measured Efficacy %.
reported_endpoint: Efficacy % (%)

1. CC(C)c1ccc(Cl)cc1CN(C(=O)c1c(C(F)F)nn(C)c1F)C1CC1 [(2.038) isoflucypram, isoflucypram]: 100
2. CC(O)(Cn1cncn1)c1ccc(Oc2ccc(Cl)cc2)cc1C(F)(F)F (stereo not shown) [(1.055) mefentrifluconazole, mefentrifluconazole]: 100
3. COc1ccnc(C(=O)N[C@H]2COC(=O)[C@H](Cc3ccccc3)[C@@H](OC(=O)C(C)C)[C@H](C)OC2=O)c1OCOC(=O)C(C)C [(3.025) fenpicoxamid, fenpicoxamid]: 0
4. Cn1cc(C(=O)Nc2ccc(F)cc2-c2ccc(Cl)c(Cl)c2)c(C(F)F)n1 [(2.002) bixafen, bixafen]: 100

* * *

System: Cercospora beticola
test_method_notes: in vitro-Test with fungal microorganisms, Method A (tables C1-C10)
Type: cell-based
study_conditions: Cercospora beticola, 0.2 ppm alone; read-out: Efficacy %
reported_endpoint: inhibition of growth at 0.2 ppm

1) CC1COC(Cn2cncn2)(c2ccc(Oc3ccc(Cl)cc3)cc2Cl)O1 (stereo not shown): 79%
2) OC(Cc1ccccc1Cl)(Cn1nc[nH]c1=S)C1(Cl)CC1 (stereo not shown): 100%
3) CON=C(C(=O)OC)c1ccccc1CON=C(C)c1cccc(C(F)(F)F)c1: 100%
4) CC(C)(C)C(O)(CCc1ccc(Cl)cc1)Cn1cncn1 (stereo not shown): 100%

* * *

Test system: Alternaria alternate
test_method_notes: in vitro-Test with fungal microorganisms, Method A (tables A1-A12)
Assay type: cell-based, Alternaria alternata
study_conditions: Alternaria, applied alone, 20 ppm; read-out: Efficacy %
inhibition of growth at 20 ppm: recorded values
reported_endpoint: inhibition of growth at 20 ppm (%)

1. COc1cc(C)c(C(=O)c2c(OC)ccc(Br)c2C)c(OC)c1OC: 11
2. O=C1C2CC=CCC2C(=O)N1SC(Cl)(Cl)Cl (centres unmarked): 56
3. CCCN(CC)CC1COC2(CCC(C(C)(C)C)CC2)O1 (centres unmarked): 16
4. Cc1cc(C)nc(Nc2ccccc2)n1: 82
5. O=C(NCCc1ncc(C(F)(F)F)cc1Cl)c1ccccc1C(F)(F)F: 82

* * *

Tested on: Colletotrichum coccodes
test_method_notes: in vitro-Test with fungal microorganisms, Method B (tables J1-J11)
Assay type: cell-based
study_conditions: Colletotrichum coccodes, single active compound at 0.08 ppm; read-out: Efficacy %
Measured inhibition of growth at 0.08 ppm accompanies every entry in the list below.
reported_endpoint: inhibition of growth at 0.08 ppm (%)

1) CCN(C)C=Nc1cc(C)c(Oc2cccc(SC(F)(F)C(F)F)c2)cc1C: 1
2) N#Cc1sc2c(=O)c3ccccc3c(=O)c=2sc1C#N: 0
3) CO/N=C(/C1=NOCCO1)c1ccccc1Oc1ncnc(Oc2ccccc2Cl)c1F: 0
4) Fc1ccc(Oc2ccnc3cc(Cl)cc(Cl)c23)cc1: 0

* * *

Tested on: Alternaria alternate
test_method_notes: in vitro-Test with fungal microorganisms, Method A (tables A1-A12)
Type: cell-based, Alternaria alternata
study_conditions: Alternaria, applied alone, 4 ppm; read-out: Efficacy %
# inhibition of growth at 4 ppm values compiled below
reported_endpoint: inhibition of growth at 4 ppm

1. O=C(NCCc1ncc(C(F)(F)F)cc1Cl)c1ccccc1C(F)(F)F [(2.005) fluopyram, Fluopyram]: 63%
2. Cc1cc(C)nc(Nc2ccccc2)n1 [(7.005) pyrimethanil, pyrimethanil]: 93%
3. COc1cc(C)c(C(=O)c2c(OC)ccc(Br)c2C)c(OC)c1OC [(15.016) metrafenone, metrafenone]: 0%
4. CCCN(CC)CC1COC2(CCC(C(C)(C)C)CC2)O1 (stereo not shown) [(1.020) spiroxamine, spiroxamine]: 12%

* * *

Tested on: Alternaria alternata
test_method_notes: in vitro-Test with fungal microorganisms, Method B (tables A13-A22)
Assay type: cell-based
study_conditions: Alternaria alternata, single compound, 1 ppm; read-out: Efficacy
inhibition of growth at 1 ppm values for the molecules below.
reported_endpoint: inhibition of growth at 1 ppm

1. COc1cc(C)c(C(=O)c2c(OC)ccc(Br)c2C)c(OC)c1OC [(15.016) metrafenone, metrafenone]: 0%
2. CC1COC(Cn2cncn2)(c2ccc(Oc3ccc(Cl)cc3)cc2Cl)O1 (stereo not shown) [(1.002) difenoconazole, difenoconazole]: 94%
3. O=C1c2ccccc2C(=O)N1SC(Cl)(Cl)Cl [(5.012) folpet, folpet]: 83%
4. Cc1ccc(C[C@H]2CON=C(c3cc(C)nnc3Oc3cccc(Cl)c3F)N2)c(Cl)c1 [Compound I-339]: 100%

* * *

Test system: Cordana musae
test_method_notes: in vitro-Test with fungal microorganisms, Method B (tables E9-E16)
Type: cell-based
study_conditions: Neocordana musae, single active, 1 ppm; read-out: Efficacy
Rule: inhibition of growth at 1 ppm of 60% or more gives true (1); anything lower gives false (0).

1) CC(C)(C)C(O)(CCc1ccc(Cl)cc1)Cn1cncn1 (stereo not drawn): true (1)
2) O=C1c2ccccc2C(=O)N1SC(Cl)(Cl)Cl: true (1)
3) COc1cc(C)c(C(=O)c2c(OC)ccc(Br)c2C)c(OC)c1OC: false (0)
4) Cc1ccc(C[C@H]2CON=C(c3cc(C)nnc3Oc3cccc(Cl)c3F)N2)c(Cl)c1: true (1)
5) CC1COC(Cn2cncn2)(c2ccc(Oc3ccc(Cl)cc3)cc2Cl)O1 (stereo not drawn): false (0)
6) O=C1C2CC=CCC2C(=O)N1SC(Cl)(Cl)Cl (stereo not drawn): false (0)

* * *

Let's look at some molecules and their measured inhibition of growth at 0.8 ppm.
Tested on: Ustilago segetum var. avenae
test_method_notes: in vitro-Test with fungal microorganisms, Method A (tables I1-I5)
Type: cell-based
study_conditions: alone, 0.8 ppm; read-out: Efficacy %
reported_endpoint: inhibition of growth at 0.8 ppm (%)

1) O=C1C2CC=CCC2C(=O)N1SC(Cl)(Cl)Cl (stereo not shown) [(5.003) captan, captan]: 0
2) CCCN(CC)CC1COC2(CCC(C(C)(C)C)CC2)O1 (stereo not shown) [(1.020) spiroxamine, spiroxamine]: 3
3) O=C(NCCc1ncc(C(F)(F)F)cc1Cl)c1ccccc1C(F)(F)F [(2.005) fluopyram, Fluopyram]: 9
4) N#Cc1sc2c(=O)c3ccccc3c(=O)c=2sc1C#N [(5.010) dithianon, dithianon]: 12
